# literature pull: Oxysterols receptor LXR-alpha (Homo sapiens) IC50
Assay Endpoint: IC50 (nM)

# count of solved cases: 3
| Molecule | IC50, nM |
| --- | --- |
| Cc1ccc(Cl)cc1-c1cccc(C2CN(S(=O)(=O)c3ccccc3)C(=O)N2C(C)C)c1 (centres unmarked) | 1990 |
| CC(C)CN(Cc1ccc(-c2cccc(S(C)(=O)=O)c2)s1)S(=O)(=O)c1cccc(Cl)c1F | 1380 |
| Cc1cc(NCc2cccc(-c3c(C)cnc4c(C(F)(F)F)cccc34)c2)c(C)cc1CC(=O)O | 223 |

A: CCc1nc2c(Cl)cccn2c1-c1cccc(Oc2cccc(S(=O)(=O)C(C)C)c2)c1
B: Cc1ccc(C)c(-c2cccc([C@H]3CN(C(=O)OC(C)(C)C)C(=O)C[C@H]3c3ccccc3)c2)c1 (relative stereo)
Returns the identifier with the smallest measured IC50 among A and B . To answer, give the label that identifies your chosen option.
B
(B: 185 nM, A: 315 nM)
